molecular target: PARP (mixed cellular PARPs); assay: Inhibition of mixed PARPs from broken cell nuclei by broken nuclei assay
pIC50: −log10 of the molar value.
Consider the following compounds and their measured pIC50 readings.

- QUERY SMILES: "O=C(O)/C=C/c1cccc2c(=O)[nH]ccc12"
  pIC50: "> 4.96"

Let us move to another entry and its pIC50.
Query :: GET /values?readout=pIC50&item= O=C(O)c1cccc2c(=O)[nH]ccc12
Result :: > 4.89

###

target: Poly [ADP-ribose] polymerase 1 (Homo sapiens)
Sequence (P09874 whole entry): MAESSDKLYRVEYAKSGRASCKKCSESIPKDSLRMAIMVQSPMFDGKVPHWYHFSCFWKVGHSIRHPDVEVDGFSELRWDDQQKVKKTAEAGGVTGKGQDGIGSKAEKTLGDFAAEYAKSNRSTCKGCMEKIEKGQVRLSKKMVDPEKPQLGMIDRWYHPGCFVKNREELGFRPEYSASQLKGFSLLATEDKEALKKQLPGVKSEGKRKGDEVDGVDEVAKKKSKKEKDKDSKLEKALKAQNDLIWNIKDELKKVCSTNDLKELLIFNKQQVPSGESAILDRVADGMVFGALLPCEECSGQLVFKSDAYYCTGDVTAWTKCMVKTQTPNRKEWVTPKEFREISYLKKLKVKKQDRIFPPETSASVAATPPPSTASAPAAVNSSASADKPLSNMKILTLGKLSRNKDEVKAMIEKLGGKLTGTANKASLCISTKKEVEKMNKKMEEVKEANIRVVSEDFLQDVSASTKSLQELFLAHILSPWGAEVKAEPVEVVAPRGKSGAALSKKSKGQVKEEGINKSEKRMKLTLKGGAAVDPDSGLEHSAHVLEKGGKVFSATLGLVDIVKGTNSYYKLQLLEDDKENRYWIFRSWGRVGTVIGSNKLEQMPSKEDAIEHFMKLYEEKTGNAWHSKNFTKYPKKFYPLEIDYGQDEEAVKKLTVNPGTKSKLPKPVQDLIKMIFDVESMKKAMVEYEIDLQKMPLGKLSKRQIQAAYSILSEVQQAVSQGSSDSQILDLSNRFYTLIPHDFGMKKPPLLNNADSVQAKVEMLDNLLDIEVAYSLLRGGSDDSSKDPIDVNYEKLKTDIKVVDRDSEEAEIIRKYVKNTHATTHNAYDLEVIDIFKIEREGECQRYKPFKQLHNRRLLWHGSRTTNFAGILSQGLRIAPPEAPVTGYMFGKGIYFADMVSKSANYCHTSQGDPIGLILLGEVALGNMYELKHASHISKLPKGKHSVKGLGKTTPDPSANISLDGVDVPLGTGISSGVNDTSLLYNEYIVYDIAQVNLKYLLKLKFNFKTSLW
EXPERIMENTAL ENDPOINT: pIC50
Scale: negative log10 of molar concentration, which is what pIC50 denotes.

Query :: GET /values?readout=pIC50&item= O=C(Oc1cccc2c(=O)[nH]ccc12)c1ccccc1
Result :: 5.39
